B1: Azoarcus group I ribozyme (parent)
chain: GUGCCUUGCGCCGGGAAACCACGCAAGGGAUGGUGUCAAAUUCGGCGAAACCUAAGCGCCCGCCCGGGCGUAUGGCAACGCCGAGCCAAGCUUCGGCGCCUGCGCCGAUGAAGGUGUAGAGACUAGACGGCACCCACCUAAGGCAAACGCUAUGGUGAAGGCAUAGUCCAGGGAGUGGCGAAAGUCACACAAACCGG

- Variants of: B1
- PROTOCOL_DESCRIPTION: reverse-splicing fitness (ratio to wild type); higher = more active; in vitro selection; Mg2+ level not given
Please enter label 1 where reverse-splicing fitness is greater than or equal to 0.01, and label 0 where it is lower.

Prompt: Is it the case that C82A A111G A120C A145G C150U U176A has reverse-splicing fitness reaching or exceeding 0.01?
Completion: label 1

Prompt: Is it the case that C82U A111C A120G A145G U176G has reverse-splicing fitness reaching or exceeding 0.01?
Completion: label 0

Prompt: Is it the case that C82U A120G A145U C150U C169G has reverse-splicing fitness reaching or exceeding 0.01?
Completion: label 1

Prompt: Is it the case that C82A A111U A120G A145U C150G U176G has reverse-splicing fitness reaching or exceeding 0.01?
Completion: label 0

Prompt: Is it the case that C82A A120U U176G has reverse-splicing fitness reaching or exceeding 0.01?
Completion: label 0
